Settings: human, in vivo, 20 mg, Cmax, day 1, 20 mg; mean ± SD
Metric Name: Cmax
Value and unit, in that order.

Input: Query: Cmax; subject: CC(C)(C)OC[C@@H]1C(=O)NCCN1C(=O)C[C@H](N)Cc1cc(F)c(F)cc1F [Evogliptin]
Output: 21.7 ng/mL

====

Details: human, in vivo
Metric Name: Tmax

Input: Requested field: Tmax. Item: CC(C)(C)OC[C@@H]1C(=O)NCCN1C(=O)C[C@H](N)Cc1cc(F)c(F)cc1F
Output: 4 to 5 h

====

Settings: human, in vivo, 10 mg, Cmax, day 1, 10 mg; mean ± SD
Metric Name: Cmax

Input: Reported Cmax, compound CC(C)(C)OC[C@@H]1C(=O)NCCN1C(=O)C[C@H](N)Cc1cc(F)c(F)cc1F : ____
Output: 9.5 ng/mL

====

Details: human, in vivo, 5 mg, Cmax, day 1, 5 mg; mean ± SD
Metric Name: Cmax (ng/mL)
The figure you give is taken to be in ng/mL; do not add the unit.

Input: # input molecule: CC(C)(C)OC[C@@H]1C(=O)NCCN1C(=O)C[C@H](N)Cc1cc(F)c(F)cc1F ; wanted: its Cmax
Output: 4.9

====

Settings: human, in vivo, 5 mg, t1/2,ss, day 10, steady state, 5 mg once daily; mean ± SD
Metric Name: half-life (h)
// return numeric value only (unit: h, not printed)

Input: Which half-life value is on record for CC(C)(C)OC[C@@H]1C(=O)NCCN1C(=O)C[C@H](N)Cc1cc(F)c(F)cc1F ?
Output: 32.9

====

Conditions: human, in vivo, 5 mg, Cmax,ss, day 10, steady state, 5 mg once daily; mean ± SD
Metric Name: Cmax (ng/mL)
Record the value in ng/mL, omitting the unit from your answer.

Input: Query (compound): CC(C)(C)OC[C@@H]1C(=O)NCCN1C(=O)C[C@H](N)Cc1cc(F)c(F)cc1F ; field requested: Cmax
Output: 6.7
